# assay-summary: in vivo
# condition-description: male, Wistar, rat, iv, 0.5 mg/kg
measured-endpoint: clearance at 24 h (mL/min/kg)
Please respond with the number in mL/min/kg and leave the unit unwritten.

Task item: Supply reported clearance at 24 h belonging to this compound: `O=C(O)c1cc(-c2ccc(-c3cc(CO)on3)cc2)c2ccc(-c3ccc(C(F)(F)F)cc3)cc2c1`
Reply: 35.2

====

# assay-summary: in vivo
# condition-description: male, Wistar, rat, ip, 1 mg/kg
measured-endpoint: half-life (h)
Give just the number in h; leave the unit off.

Task item: // Input: `O=C(O)c1cc(-c2ccc(-c3cc(CO)on3)cc2)c2ccc(-c3ccc(C(F)(F)F)cc3)cc2c1` . Output its half-life only.
Reply: 7.23

====

# assay-summary: in vivo
# condition-description: male, Wistar, rat, iv, 0.5 mg/kg
measured-endpoint: half-life at 24 h (min)
I only need the number, in min, no unit after it.

Task item: State its half-life at 24 h: `O=C(O)c1cc(-c2ccc(-c3cc(CO)on3)cc2)c2ccc(-c3ccc(C(F)(F)F)cc3)cc2c1`
Reply: 41.3

====

# tested-target: hERG (Homo sapiens)
# Sequence (Q12809 whole entry): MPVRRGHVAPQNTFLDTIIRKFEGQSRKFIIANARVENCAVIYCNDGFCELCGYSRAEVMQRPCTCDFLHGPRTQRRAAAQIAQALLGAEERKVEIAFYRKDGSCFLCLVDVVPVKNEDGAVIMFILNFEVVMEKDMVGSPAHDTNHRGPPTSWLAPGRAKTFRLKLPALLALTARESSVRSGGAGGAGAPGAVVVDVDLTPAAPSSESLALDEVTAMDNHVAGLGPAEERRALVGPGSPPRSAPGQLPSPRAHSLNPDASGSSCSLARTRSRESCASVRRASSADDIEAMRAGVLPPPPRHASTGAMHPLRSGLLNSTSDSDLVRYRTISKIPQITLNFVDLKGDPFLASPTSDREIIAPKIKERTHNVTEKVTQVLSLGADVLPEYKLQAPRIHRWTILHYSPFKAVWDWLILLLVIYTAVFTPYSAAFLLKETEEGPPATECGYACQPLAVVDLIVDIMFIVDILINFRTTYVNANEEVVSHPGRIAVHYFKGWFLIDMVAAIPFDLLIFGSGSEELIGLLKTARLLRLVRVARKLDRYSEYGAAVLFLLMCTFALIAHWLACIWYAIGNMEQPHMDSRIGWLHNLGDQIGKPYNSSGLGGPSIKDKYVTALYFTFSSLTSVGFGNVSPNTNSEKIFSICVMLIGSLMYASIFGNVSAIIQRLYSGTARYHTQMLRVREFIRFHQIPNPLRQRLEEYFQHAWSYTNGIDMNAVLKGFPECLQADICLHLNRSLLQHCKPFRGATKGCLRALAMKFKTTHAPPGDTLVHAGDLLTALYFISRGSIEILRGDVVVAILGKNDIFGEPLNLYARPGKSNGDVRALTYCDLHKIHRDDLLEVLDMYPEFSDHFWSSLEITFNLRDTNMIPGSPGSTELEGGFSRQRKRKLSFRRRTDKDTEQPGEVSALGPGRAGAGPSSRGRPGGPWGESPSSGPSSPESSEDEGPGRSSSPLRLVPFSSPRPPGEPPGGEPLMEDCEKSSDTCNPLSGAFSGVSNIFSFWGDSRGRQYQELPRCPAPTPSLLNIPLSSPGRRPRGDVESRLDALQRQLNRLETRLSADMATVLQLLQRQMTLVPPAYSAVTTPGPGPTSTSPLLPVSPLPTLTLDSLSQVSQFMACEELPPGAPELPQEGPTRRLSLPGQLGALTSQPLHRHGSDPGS
measured-endpoint: IC50

Task item: Please supply the value of reported IC50 for the item `O=C(O)c1cc(-c2ccc(C3CCNCC3)cc2)c2ccc(-c3ccc(C(F)(F)F)cc3)cc2c1`
Reply: > 30 µM

====

# assay-summary: in vivo
# condition-description: male, Wistar, rat, ip, 3 mg/kg
measured-endpoint: half-life at 24 h (h)
Answer with a number only, understood to be in h.

Task item: Supply half-life at 24 h value. Item: `O=C(O)c1cc(-c2ccc(-c3cc(CO)on3)cc2)c2ccc(-c3ccc(C(F)(F)F)cc3)cc2c1`
Reply: 4.68

====

# assay-summary: in vivo
# condition-description: male, Wistar, rat, ip, 10 mg/kg
measured-endpoint: AUC(0-t) at 24 h (ng·h/mL)
Number only, in ng·h/mL; omit the unit.

Task item: Report AUC(0-t) at 24 h for O=C(O)c1cc(-c2ccc(-c3cc(CO)on3)cc2)c2ccc(-c3ccc(C(F)(F)F)cc3)cc2c1 [Compound 32]
Reply: 4900

====

# assay-summary: in vivo
# condition-description: male, Wistar, rat, ip, 1 mg/kg
measured-endpoint: AUC(0-t) at 24 h (ng·h/mL)
I only need the number, in ng·h/mL, no unit after it.

Task item: Consider the molecule `O=C(O)c1cc(-c2ccc(-c3cc(CO)on3)cc2)c2ccc(-c3ccc(C(F)(F)F)cc3)cc2c1` . State its measured AUC(0-t) at 24 h.
Reply: 650

====

# assay-summary: in vivo
# condition-description: male, Wistar, rat, ip, 10 mg/kg
measured-endpoint: AUC(0-inf) at 24 h (ng·h/mL)
Dear colleague, please return just the value in ng·h/mL, with no unit written.

Task item: Quick one: give measured AUC(0-inf) at 24 h for O=C(O)c1cc(-c2ccc(-c3cc(CO)on3)cc2)c2ccc(-c3ccc(C(F)(F)F)cc3)cc2c1 [Compound 32]
Reply: 4920

====

# assay-summary: in vivo
# condition-description: male, Wistar, rat, ip, 3 mg/kg
measured-endpoint: AUC(0-t) at 24 h (ng·h/mL)
# unit: ng·h/mL | format: bare number

Task item: Identify AUC(0-t) at 24 h associated with the molecule `O=C(O)c1cc(-c2ccc(-c3cc(CO)on3)cc2)c2ccc(-c3ccc(C(F)(F)F)cc3)cc2c1`
Reply: 2060

From: paper PMC8317135
